target: Proteasome component C5 (Homo sapiens) (UniProt P20618); test: Inhibition of caspase like activity of 26S proteasome beta 1 subunit in human U266 cells assessed as residual activity using […] as substrate at 10 uM preincubated for 1 hr followed by substrate addition and measured after 4 hrs by fluorescence assay relative to control; assay type: cell-based
Sequence (P20618 whole entry): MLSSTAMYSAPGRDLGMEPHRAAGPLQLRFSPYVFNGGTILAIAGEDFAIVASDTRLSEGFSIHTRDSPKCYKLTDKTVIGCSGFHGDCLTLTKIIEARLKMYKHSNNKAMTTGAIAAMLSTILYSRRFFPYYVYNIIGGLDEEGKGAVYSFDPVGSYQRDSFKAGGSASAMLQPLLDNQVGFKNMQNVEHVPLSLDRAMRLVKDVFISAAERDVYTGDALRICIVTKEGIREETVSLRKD
Catalogue of Activity readings, one per entry.

CC(C)C[C@H](NC(=O)c1cc(Cl)ccc1OCc1ccccc1)C(=O)N[C@@H](Cc1ccccc1)C(=O)N[C@H](C=O)Cc1ccccc1    > 100%
CC(C)C[C@H](NC(=O)c1cc(Cl)ccc1O)C(=O)N[C@H](C=O)Cc1ccccc1    > 100%

Next item in the queue.
-- ask Which Activity is listed for CC(C)C[C@H](NC(=O)c1cc(Cl)ccc1OCc1ccccc1)C(=O)N[C@@H](Cc1ccccc1)C(=O)NC(C=O)Cc1ccccc1 (stereo partly drawn) ?
-- reply > 100%
